Data provenance: the RNAGym collection of RNA variant scans (doi:10.1126/science.aae0568)

B1: tRNA (parent)
chain: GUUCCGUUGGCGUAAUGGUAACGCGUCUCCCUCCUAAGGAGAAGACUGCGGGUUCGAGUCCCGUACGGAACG

variants of: B1; assay: yeast fitness relative to wild type (ratio to wild type); higher = fitter; tRNA-Arg(CCU), competitive growth, 37 C, YPD
Variants at the floor of the assay were thinned out.

- variantDescription: "C4G C34G G67A"
  yeast fitness: "≤ 0.5"
- variantDescription: "U3G U8A C31A A69C A70G"
  yeast fitness: "≤ 0.5"
- variantDescription: "U3C A14G C22A C27G G39C C62G"
  yeast fitness: "≤ 0.5"
- variantDescription: "G6A C22U A37G G68A A69G"
  yeast fitness: "≤ 0.5"
- variantDescription: "C4A U26A U32G A42C A57U"
  yeast fitness: "≤ 0.5"
- variantDescription: "U7C A20U C34G A36C C55U A65U"
  yeast fitness: "≤ 0.5"
- variantDescription: "C27U A37G A70C"
  yeast fitness: 0.562
- variantDescription: "A20U A43U C49A G68A"
  yeast fitness: "≤ 0.5"
- variantDescription: "U3A C22U G39A"
  yeast fitness: "≤ 0.5"
- variantDescription: "G41A G48C C49U G68A"
  yeast fitness: "≤ 0.5"
- variantDescription: "C11U G12A C24U C34G"
  yeast fitness: "≤ 0.5"
- variantDescription: "U7C C11G C24A U47A U64C G67U"
  yeast fitness: "≤ 0.5"
- variantDescription: "C31U A40G G48A A70U"
  yeast fitness: 0.533
- variantDescription: "C4U G52C"
  yeast fitness: 0.726
- variantDescription: "C30U C33G A65C"
  yeast fitness: 0.577
- variantDescription: "C33U A57G C66U"
  yeast fitness: "≤ 0.5"
- variantDescription: "U8C C27U"
  yeast fitness: 0.792
- variantDescription: "G12A C33U A36C G51C A57U"
  yeast fitness: "≤ 0.5"
- variantDescription: "G9A U19C A43U"
  yeast fitness: 0.713
- variantDescription: "U3G C22A G25C C33U"
  yeast fitness: 0.606
- variantDescription: "C27G A45C C55G G58C"
  yeast fitness: "≤ 0.5"
- variantDescription: "C11U G25A"
  yeast fitness: 0.867
- variantDescription: "C30U G51C C61A"
  yeast fitness: 0.635
- variantDescription: "U35A A57U C66G"
  yeast fitness: "≤ 0.5"
